Measured Potency of individual entries
System: Schistosoma mansoni peroxiredoxin 2 (Prx2)
experimental.protocol: Schistosoma Mansoni Peroxiredoxins (Prx2); note: potency is the fitted concentration of half-maximal effect
test.settings: S. mansoni Prx2 activity coupled to TGR/GSH (TGR is thioredoxin glutathione reductase), NADPH fluorescence loss, qHTS
Screen size: about 65,000 compounds; about 45 (0.07%) were called active. The list is a sample of the results.

>  <molecule>
Cc1ccc(S(=O)(=O)NC(=O)NN2C[C@H]3CCC[C@@H]3C2)cc1

>  <Potency>
> 57 µM (inactive)

$$$$
>  <molecule>
NS(=O)(=O)c1cc(Cl)c(Cl)c(S(N)(=O)=O)c1

>  <Potency>
> 57 µM (inactive)

$$$$
>  <molecule>
CC(=O)N1CCC2(CCCN(c3ncccn3)C2)CC1

>  <Potency>
> 57 µM (inactive)

$$$$
>  <molecule>
COCCn1c(=O)c(-c2cc(F)cc(F)c2)nc2cncnc21

>  <Potency>
> 11.4 µM (inactive)

$$$$
>  <molecule>
CCC[C@@H]1C[C@@]1(CCC)C(NC(=O)c1ccc(-c2ccccc2)cc1)c1cccc(Cl)c1 (stereo partly specified)

>  <Potency>
> 57 µM (inactive)

$$$$
>  <molecule>
COCCn1c(=O)c(CCc2ccccc2)nc2cncnc21

>  <Potency>
> 57 µM (inactive)

$$$$
>  <molecule>
CN(C)c1cc2c(Nc3ccc4c(cnn4Cc4ccccc4)c3)ncnc2cn1

>  <Potency>
> 57 µM (inactive)

$$$$
>  <molecule>
Oc1ccc2ccccc2c1C=NCc1c(O)ccc2ccccc12

>  <Potency>
> 57 µM (inactive)

$$$$
>  <molecule>
Cn1cc(-c2nc3cnc(N4CCNCC4)nc3n(CCc3ccccc3)c2=O)c2ccccc21

>  <Potency>
> 57 µM (inactive)

$$$$
>  <molecule>
CCCN(C/C=C\I)[C@@H]1CCc2cccc(O)c2C1

>  <Potency>
> 57 µM (inactive)

$$$$
>  <molecule>
CCNCCCNCCCNCCCNCC

>  <Potency>
> 57 µM (inactive)

$$$$
